- TESTED_ON: T1, human mutCALR on BaF3 cells stably expressing human MPL and human mutCALR (MPL-mutCALR cells) (human)
- T1 construct: also called mutant calreticulin
- T1 chain: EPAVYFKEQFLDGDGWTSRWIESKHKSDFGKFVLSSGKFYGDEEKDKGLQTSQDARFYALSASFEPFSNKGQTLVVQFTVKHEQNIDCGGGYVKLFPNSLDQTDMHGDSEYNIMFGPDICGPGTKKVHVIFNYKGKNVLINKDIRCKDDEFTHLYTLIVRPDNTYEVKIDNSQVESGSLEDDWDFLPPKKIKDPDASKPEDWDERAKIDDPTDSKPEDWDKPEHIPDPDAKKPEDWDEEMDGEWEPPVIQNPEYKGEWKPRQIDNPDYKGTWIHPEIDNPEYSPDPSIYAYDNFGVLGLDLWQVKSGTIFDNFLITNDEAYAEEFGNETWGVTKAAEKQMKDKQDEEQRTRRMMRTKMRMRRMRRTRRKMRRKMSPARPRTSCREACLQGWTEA
- PROTOCOL_SUMMARY: flow cytometry, BaF3 MPL-mutCALR cells
Below is a list of entries, each paired with its recorded MPL-mutCALR AUC value.
The answer should be a number; do not append a unit.

Some binders with recorded MPL-mutCALR AUC:
[[record]]
binder = "anti-mutCALR antibody clone 56 (antibody, human IgG1, lambda, N297A, V domains shown) VH: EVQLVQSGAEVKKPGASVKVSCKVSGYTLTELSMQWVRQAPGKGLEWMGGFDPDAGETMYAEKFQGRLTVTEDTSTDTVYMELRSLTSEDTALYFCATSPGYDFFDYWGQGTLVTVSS VL: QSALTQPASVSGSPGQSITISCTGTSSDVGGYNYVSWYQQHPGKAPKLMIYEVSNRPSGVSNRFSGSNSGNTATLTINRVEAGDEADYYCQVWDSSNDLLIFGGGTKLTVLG"
outcome_measure = "MPL-mutCALR AUC"
obs_value = 64400

[[record]]
binder = "anti-mutCALR antibody clone 171 (antibody, human IgG1, lambda, N297A, V domains shown) VH: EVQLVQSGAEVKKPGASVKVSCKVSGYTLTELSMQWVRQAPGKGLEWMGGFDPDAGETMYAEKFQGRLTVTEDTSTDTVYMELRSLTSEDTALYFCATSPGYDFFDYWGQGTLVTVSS VL: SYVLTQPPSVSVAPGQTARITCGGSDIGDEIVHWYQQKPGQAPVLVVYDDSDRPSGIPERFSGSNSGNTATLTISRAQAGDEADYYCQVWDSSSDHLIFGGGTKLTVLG"
outcome_measure = "MPL-mutCALR AUC"
obs_value = 50300

[[record]]
binder = "anti-mutCALR antibody clone 172 (antibody, human IgG1, lambda, N297A, V domains shown) VH: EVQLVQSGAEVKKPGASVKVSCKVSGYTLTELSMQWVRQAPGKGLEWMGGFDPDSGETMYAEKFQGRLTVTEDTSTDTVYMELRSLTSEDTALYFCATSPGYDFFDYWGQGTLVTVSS VL: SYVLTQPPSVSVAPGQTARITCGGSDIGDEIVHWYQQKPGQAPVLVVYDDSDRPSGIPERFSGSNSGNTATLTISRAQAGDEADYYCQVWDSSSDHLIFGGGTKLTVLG"
outcome_measure = "MPL-mutCALR AUC"
obs_value = 53600

[[record]]
binder = "anti-mutCALR antibody clone 19 (antibody, human IgG1, lambda, V domains shown) VH: EVQLVQSGAEVKKPGASVKVSCKVSGYTLTELSMQWVRQAPGKGLEWMGGFDPDDGETMYAEKFQGRLTVTEDTPTDTVYMELRSLTSEDTALYFCATSPGYDFFDYWGQGTLVTVSS VL: SYVLTQPLSVSVALGQTARITCGGSNIGDIRVHWYQQKPGQAPVLVVYDDSDRPSGIPERFSGSNSGNTATLTINRVEAGDEADYYCQVWDSSNDLLIFGGGTKLTVLG"
outcome_measure = "MPL-mutCALR AUC"
obs_value = 91600


Now look at this entry.
Give MPL-mutCALR AUC for the following binder: anti-mutCALR antibody clone 188 (antibody, human IgG1, lambda, N297A, V domains shown) VH: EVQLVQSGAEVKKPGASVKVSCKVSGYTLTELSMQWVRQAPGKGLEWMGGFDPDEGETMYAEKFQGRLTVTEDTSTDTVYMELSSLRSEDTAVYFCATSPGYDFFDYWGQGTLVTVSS VL: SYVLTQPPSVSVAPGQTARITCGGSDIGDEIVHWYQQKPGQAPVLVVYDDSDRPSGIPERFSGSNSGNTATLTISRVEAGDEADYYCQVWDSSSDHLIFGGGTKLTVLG 68000

All figures here come from patent US20230272055A1.
